Value source: ChEMBL document CHEMBL2331168

system: Mus musculus; test: Neurotoxicity in albino mouse assessed as minimal motor impairment at 300 mg/kg, ip after 4 hrs by rotorod test; format: toxicity, organism-based; design: dose 300 mg/kg, route intraperitoneal; settings: in vivo
MEASURE: Activity

Worked set:
Lab book: Activity of `C[C@H](CO)NCc1ccc2oc3ccc(Cl)cc3c(=O)c2c1` noted as Non-toxic

Lab book: Activity of `CN(Cc1ccc2oc3ccc(Cl)cc3c(=O)c2c1)C(C)(C)CO` noted as Non-toxic

Lab book: Activity of `CC[C@H](CO)NCc1ccc2oc3cc(OC)ccc3c(=O)c2c1` noted as Non-toxic

Lab book: Activity of `COc1ccc2c(=O)c3cccc(CN[C@@H](C)CO)c3oc2c1` noted as Non-toxic

Lab book: Activity of `C[C@@H](CO)NCc1ccc2oc3ccc(Cl)cc3c(=O)c2c1` noted as Non-toxic

New cases:
Lab book: Activity of CCC(CO)NCc1cccc2c(=O)c3ccc(OC)cc3oc12 (racemic) noted as Toxic

* * *

system: Mus musculus; assay: Neurotoxicity in albino mouse assessed as minimal motor impairment at 300 mg/kg, ip after 4 hrs by rotorod test; format: toxicity, organism-based; design: dose 300 mg/kg, route intraperitoneal; details: in vivo
MEASURE: Activity

Worked set:
Lab book: Activity of COc1ccc2c(=O)c3cccc(CN(C)C(C)CO)c3oc2c1 (racemic) noted as Non-toxic

Lab book: Activity of `CC[C@@H](CO)NCc1ccc2oc3cc(OC)ccc3c(=O)c2c1` noted as Toxic

Lab book: Activity of `CC[C@H](CO)NCc1cccc2c(=O)c3ccc(OC)cc3oc12` noted as Non-toxic

Lab book: Activity of `CC(C)(CO)NCc1ccc2oc3ccc(Cl)cc3c(=O)c2c1` noted as Non-toxic

Lab book: Activity of `COc1ccc2c(=O)c3cccc(CN[C@H](C)CO)c3oc2c1` noted as Toxic

New cases:
Lab book: Activity of CC(CO)NCc1ccc2oc3ccc(Cl)cc3c(=O)c2c1 (racemic) noted as Non-toxic

* * *

system: Mus musculus; experiment: Anticonvulsant activity in albino mouse assessed as protection against maximal electroshock-induced seizures at 100 mg/kg, ip after 4 hrs; type: functional, organism-based; set-up: dose 100 mg/kg
Calls of active or inactive are those of the source. No cut-off for these calls is given here.
Hi there, use one of these labels in your reply, thanks! active, inactive

Below, 5 compounds whose answers are already recorded.
Input line: Status in this test for `C[C@@H](CO)NCc1ccc2oc3ccc(Cl)cc3c(=O)c2c1` ?
Output line: active

Input line: Status in this test for `COc1ccc2c(=O)c3cccc(CN[C@@H](C)CO)c3oc2c1` ?
Output line: inactive

Input line: Status in this test for CCC(CO)NCc1ccc2oc3cc(OC)ccc3c(=O)c2c1 (racemic) ?
Output line: inactive

Input line: Status in this test for COc1ccc2c(=O)c3cccc(CN(C)C(C)CO)c3oc2c1 (racemic) ?
Output line: inactive

Input line: Status in this test for `COc1ccc2c(=O)c3cccc(CNC(C)(C)CO)c3oc2c1` ?
Output line: inactive

Here's the next entry for you.
Input line: Status in this test for CCC(CO)NCc1cccc2c(=O)c3ccc(OC)cc3oc12 (racemic) ?
Output line: inactive

* * *

experiment: Neurotoxicity in ip dosed albino mouse assessed as minimal motor impairment after 0.25 hrs by rotorod test; assay type: toxicity, organism-based; settings: in vivo
MEASURE: TD50 at 0.25 h

Lab book: TD50 at 0.25 h of `CC[C@@H](CO)NCc1ccc2oc3cc(OC)ccc3c(=O)c2c1` noted as > 400 mg/kg

* * *

tested on: Mus musculus; assay: Neurotoxicity in albino mouse assessed as minimal motor impairment at 300 mg/kg, ip after 0.5 hrs by rotorod test; assay type: toxicity, organism-based; set-up: dose 300 mg/kg, route intraperitoneal; conditions: in vivo
MEASURE: Activity

Lab book: Activity of `CC[C@@H](CO)NCc1cccc2c(=O)c3ccc(OC)cc3oc12` noted as Toxic

Lab book: Activity of CCC(CO)NCc1cccc2c(=O)c3ccc(OC)cc3oc12 (racemic) noted as Toxic

Lab book: Activity of `CC[C@H](CO)NCc1cccc2c(=O)c3ccc(OC)cc3oc12` noted as Toxic

Lab book: Activity of `COc1ccc2c(=O)c3cccc(CN[C@H](C)CO)c3oc2c1` noted as Toxic

New cases:
Lab book: Activity of COc1ccc2c(=O)c3cccc(CNC(C)CO)c3oc2c1.Cl (racemic) noted as Toxic

Lab book: Activity of CC(CO)NCc1ccc2oc3ccc(Cl)cc3c(=O)c2c1 (racemic) noted as Non-toxic

Lab book: Activity of `C[C@@H](CO)NCc1ccc2oc3ccc(Cl)cc3c(=O)c2c1` noted as Non-toxic

Lab book: Activity of `COc1ccc2c(=O)c3cccc(CNC(C)(C)CO)c3oc2c1` noted as Toxic

Lab book: Activity of COc1ccc2c(=O)c3cccc(CNCC(C)O)c3oc2c1 (racemic) noted as Toxic

* * *

This section presents compounds with their documented TD50 at 1 h values.
test: Neurotoxicity in ip dosed albino mouse assessed as minimal motor impairment after 1 hr by rotorod test; assay type: toxicity, organism-based; conditions: in vivo
Kindly answer with a numeric value in mg/kg, unit omitted.

Lab book: TD50 at 1 h of CCC(CO)NCc1ccc2oc3cc(OC)ccc3c(=O)c2c1 (racemic) noted as 213

Okay, next one:
Lab book: TD50 at 1 h of `CC[C@H](CO)NCc1ccc2oc3cc(OC)ccc3c(=O)c2c1` noted as 269

* * *

tested on: Mus musculus; assay: Anticonvulsant activity in albino mouse assessed as protection against maximal electroshock-induced seizures at 100 mg/kg, ip after 4 hrs; format: functional, organism-based; design: dose 100 mg/kg
Active and inactive are the calls of the source. No cut-off for these calls is given here.
Hi there, use one of these labels in your reply, thanks! Y for active, N for inactive

Below, 2 compounds whose answers are already recorded.
Input line: Status in this test for `CC[C@H](CO)NCc1cccc2c(=O)c3ccc(OC)cc3oc12` ?
Output line: N

Input line: Status in this test for `C[C@H](CO)NCc1ccc2oc3ccc(Cl)cc3c(=O)c2c1` ?
Output line: N

New cases:
Input line: Status in this test for COc1ccc2c(=O)c3cccc(CNC(C)CO)c3oc2c1.Cl (racemic) ?
Output line: N

Input line: Status in this test for `CC(C)(CO)NCc1ccc2oc3ccc(Cl)cc3c(=O)c2c1` ?
Output line: N

Input line: Status in this test for `COc1ccc2c(=O)c3cccc(CN[C@H](C)CO)c3oc2c1` ?
Output line: N

Input line: Status in this test for `CC[C@@H](CO)NCc1ccc2oc3cc(OC)ccc3c(=O)c2c1` ?
Output line: Y

* * *

tested on: Mus musculus; experiment: Neurotoxicity in albino mouse assessed as minimal motor impairment at 30 mg/kg, ip after 0.5 hrs by rotorod test; assay type: toxicity, organism-based; parameters: dose 30 mg/kg, route intraperitoneal; conditions: in vivo
MEASURE: Activity

Worked set:
Lab book: Activity of `COc1ccc2c(=O)c3cccc(CN[C@@H](C)CO)c3oc2c1` noted as Non-toxic

Lab book: Activity of COc1ccc2c(=O)c3cccc(CNCC(C)O)c3oc2c1 (racemic) noted as Non-toxic

Lab book: Activity of COc1ccc2c(=O)c3cccc(CNC(C)CO)c3oc2c1.Cl (racemic) noted as Non-toxic

Lab book: Activity of `CC[C@@H](CO)NCc1ccc2oc3cc(OC)ccc3c(=O)c2c1` noted as Non-toxic

Lab book: Activity of `COc1ccc2c(=O)c3cccc(CN[C@H](C)CO)c3oc2c1` noted as Non-toxic

Okay, next one:
Lab book: Activity of `C[C@H](CO)NCc1ccc2oc3ccc(Cl)cc3c(=O)c2c1` noted as Non-toxic
